GI50 values for the molecules below.
Test system: HCT-15

>  <Molecule>
O=C(O)CCCNS(=O)(=O)c1ccc2ccccc2c1

>  <GI50>
> 100 µM

$$$$
>  <Molecule>
Nc1nc2c(ncn2CCOC(c2ccccc2)P(=O)(O)O)c(=O)[nH]1 (stereo not given)

>  <GI50>
> 100 µM

$$$$
>  <Molecule>
CCC(C)C1NC(=O)CNC(=O)C2Cc3c([nH]c4cc(O)ccc34)[S+]([O-])CC(NC(=O)CNC1=O)C(=O)NC(CC(=O)O)C(=O)N1CC(O)CC1C(=O)NC(C(C)C(O)CO)C(=O)N2 (stereo not given)

>  <GI50>
10.4 µM

$$$$
>  <Molecule>
CC(C)=CCC[C@]1(C)CC[C@]2(C)C3CCC(=C(C)C)[C@@H](CCCO)[C@]3(C)CC[C@@]2(C)C1 (stereo not given in full)

>  <GI50>
34 µM

$$$$
>  <Molecule>
COC1(OC)CC(CO)(CNc2nc(N)nc(Cl)c2C=O)C1

>  <GI50>
26 µM

$$$$
>  <Molecule>
Cc1ccc2nc(Cl)c(/C=N/N3C(=O)/C(=C/c4ccccc4S)N=C3c3ccccc3)cc2c1

>  <GI50>
37.8 µM

$$$$
>  <Molecule>
OCC#CCNCl

>  <GI50>
> 100 µM

$$$$
>  <Molecule>
CN(CCO)/N=N/c1n[nH]cc1C(N)=O

>  <GI50>
> 100 µM

$$$$
>  <Molecule>
c1cc(-c2cn3c(n2)SCC3)ccn1

>  <GI50>
> 43.2 µM

$$$$
>  <Molecule>
COc1ccc(C2C3CCc4ccccc4C3=NN2S(=O)(=O)c2ccc(/C=C/C(=O)O)cc2)cc1 (stereo not given)

>  <GI50>
0.188 µM

$$$$

Data credit: ChEMBL document CHEMBL1201862
